- Tested on: primary human fibroblasts derived from IPF patients (LL29 cells) treated with TGF-β1
- measurement_protocol: Inhibition of the fibrotic process (αSMA staining) in TGF-β1-treated fibroblasts
- Assay type: cell-based
- recorded_conditions: Fibroblast, 96 h, % αSMA-positive LL29 cells, TGF-β1 20 ng/mL, 4 days
Provide the recorded pEC50 for the entries that follow.
One number for each entry, as −log10 of the molar value.

| query_smiles | study_target | measured_number |
| --- | --- | --- |
| CS(=O)(=O)NCc1cc(F)cc(-c2nccc3[nH]c(-c4n[nH]c5ccc(-c6cncc(OCc7ccccc7)c6)cc45)cc23)c1 | primary human fibroblasts derived from IPF patients (LL29 cells) treated with TGF-β1 | 5.64 |
| Fc1cccc(-c2nccc3[nH]c(-c4n[nH]c5ccc(-c6ccncc6)cc45)cc23)c1 | primary human fibroblasts derived from IPF patients (LL29 cells) treated with TGF-β1 | 5.36 |
| CN1CCN(c2nccc3[nH]c(-c4n[nH]c5ccc(-c6cncc(NC(=O)C7CCCCC7)c6)cc45)cc23)CC1 | primary human fibroblasts derived from IPF patients (LL29 cells) treated with TGF-β1 | 5.48 |

Each molecule below has a recorded value; state its pEC50.
1. CCCCC(=O)Nc1cncc(-c2ccc3[nH]nc(-c4cc5cnccc5[nH]4)c3c2)c1
2. CC(C)(C)C(=O)Nc1cncc(-c2ccc3[nH]nc(-c4cc5c(N6CCCCC6)nccc5[nH]4)c3c2)c1

1. 6.72
2. 6.19
